Tested on: CDKL1;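 also: KINOMEscan kinase panel screen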
measurement_conditions: concentration: 1 μM, replicates: in singlicate; n = 1
measure_name: %Inh (%)
The response must be a number in % with no trailing unit.

Field request: %Inh | item: Cc1ccc(Nc2ccnc(Nc3ccc(C)c(F)c3)n2)cc1O.Cl
9

What does the data say about its %Inh? Entry: CN(c1ccc(NC(=O)N2CCN(CCCN3CCOCC3)CC2)cc1)c1ccnc(Nc2ccc(CS(C)(=O)=O)cc2)n1.Cl
100

Need %Inh, item O=C(Nc1n[nH]c2nc(-c3ccccc3)ccc12)C1CC1
2

Which %Inh is reported for this compound? Nc1ncc(-c2ccc3nccc(-c4ccncc4)c3c2)cc1S(=O)(=O)N1CCCCC1
0

Quick one: %Inh for CSc1ccc(NC2=C(c3ccc(Cl)cc3)C(=O)NC2=O)cc1 ?
0

Need %Inh, item CN(c1ccc(F)c(NC(=O)c2cccc(OC(C)(C)C#N)c2Cl)c1)c1ccc2nc(NC(=O)C3CC3)sc2n1
0

Would you kindly share the measured %Inh for Cl.N#CCc1ccc(Nc2nccc(Nc3ccc(Oc4ccccc4)cc3)n2)cc1 ?
3

Fill in the blank: the reported %Inh of Nc1ncc(-c2cn[nH]c2)c2scc(-c3ccc4c(c3)CCN4C(=O)Cc3ccccc3)c12 is ____.
0

What does the record list as %Inh for Cn1cc(-c2ccc3c(c2)CCN3C(=O)Cc2cc(F)cc(F)c2F)c2c(N)ncnc21 ?
8

What value of measured %Inh is listed for O=C(O)C(F)(F)F.O=c1[nH]ccc2nc(N[C@@H]3CCNC3)nc(Nc3cc(Cl)cc(Cl)c3)c12 ?
37

Return reported %Inh; argument: COc1cccc(NC(=O)NCCNc2ccnc(Nc3ccc(F)cc3)n2)c1
0

Entry O=C(O)C(F)(F)F.O=c1[nH]ccc2nc(N[C@@H]3CCNC3)nc(Nc3ccc4c(c3)S(=O)(=O)CC4)c12 has what %Inh?
40

Look up %Inh: CCOc1nccc(-c2c(-c3ccc(F)cc3)ncn2C2CCNCC2)n1
1

Quick one: %Inh of CC(C)c1nc(-c2ccc(F)c(NS(=O)(=O)c3c(F)cccc3F)c2)c(-c2ccnc(Nc3ccc(N4CCOCC4)nc3)n2)s1 ?
22

Looking for the measured %Inh of Cc1cc(-c2ccnc(Nc3cccc(C#N)c3)n2)cc(C)c1O , can you help?
1

Any idea what its %Inh is? The compound is COc1cccc(C2=C(Nc3cccc(O)c3)C(=O)NC2=O)c1
86

Would you mind telling me what %Inh value was observed for COC(=O)Nc1nc2ccc(Oc3ccc(CC(=O)Nc4cc(C(F)(F)F)ccc4F)cc3)cc2[nH]1 ?
2

Any idea what %Inh was measured for CN1CCN(Cc2ccc(NC(=O)Nc3ccc(N(C)c4ccnc(Nc5ccc(CS(C)(=O)=O)cc5)n4)cc3)cc2)CC1.Cl ?
71

Fill blank: measured %Inh of the compound CN(C)c1ncnc2nc[nH]c12 is ____.
23

Looking for the measured %Inh of Cl.Cl.NC(CNC(=O)c1cc(Br)c(-c2ccnc3[nH]ccc23)s1)c1ccccc1 (stereo not drawn) , can you help?
12

Need %Inh of CC(=O)Nc1cn2nc(Oc3cccc(NC(=O)c4cccc(C(F)(F)F)c4)c3)ccc2n1 , thanks.
48

Using the record for COc1ccc(C)c(Nc2ccnc(Nc3ccc(-c4cnc[nH]4)cc3)n2)c1.Cl , report its %Inh.
44

So what's the measured %Inh for this one? Nc1ncnc2scc(-c3ccc(NC(=O)Cc4cc(F)ccc4F)cc3)c12.O=C(O)C(F)(F)F
30

What does the data say about its %Inh? Entry: O=C(Nc1n[nH]c2nc(-c3cccc(O)c3)ccc12)C1CC1
30

Requested field: %Inh. Item: CN(C)CCOc1ccc(-c2cc(-c3ccc(Cl)c(O)c3)c(-c3ccncc3)[nH]2)cc1.Cl.Cl
28

Could you share which %Inh value was measured for CCNC(=O)/C=C/c1n[nH]c2cc(Sc3ccccc3C(=O)NC)ccc12 ?
17

Field request: %Inh | item: COc1ccc(C2=C(Nc3cccc(O)c3)C(=O)NC2=O)cc1
0

For O=C1NC(=O)C(c2ccccc2Cl)=C1Nc1cccc(Cl)c1 , what is its reported %Inh?
16

%Inh for CCn1c(-c2nonc2N)nc2c(-c3ccccc3)ncc(OCCCN)c21.O=C(O)C(F)(F)F.O=C(O)C(F)(F)F ?
7

For Fc1cc(Cl)ccc1Nc1ccnc2cc(-c3ccc(CN4CCOCC4)o3)ccc12 , what is its reported %Inh?
0

Please give the measured %Inh for this compound: Fc1cc(Cl)ccc1Nc1ccnc2cc(-c3ccc(CN4CCSCC4)o3)ccc12
100

Any idea what %Inh was measured for CN(c1ccc2c(c1)nc(NCc1ccccc1)n2C)c1ccnc(Nc2ccc(CS(C)(=O)=O)cc2)n1.Cl ?
20

Dear colleague, I am looking for the recorded %Inh of the following compound: COC(=O)Nc1nc2ccc(Oc3ccc(NC(=O)Nc4cc(C(F)(F)F)ccc4F)cc3)cc2[nH]1.Cl
21

All figures here come from paper PMC5540273.
